# Study target: T1, Rb^P S671F (human, UniProt P06400 380-788, S671F)
# T1 construct: also called variant 53
# T1 sequence (looked up): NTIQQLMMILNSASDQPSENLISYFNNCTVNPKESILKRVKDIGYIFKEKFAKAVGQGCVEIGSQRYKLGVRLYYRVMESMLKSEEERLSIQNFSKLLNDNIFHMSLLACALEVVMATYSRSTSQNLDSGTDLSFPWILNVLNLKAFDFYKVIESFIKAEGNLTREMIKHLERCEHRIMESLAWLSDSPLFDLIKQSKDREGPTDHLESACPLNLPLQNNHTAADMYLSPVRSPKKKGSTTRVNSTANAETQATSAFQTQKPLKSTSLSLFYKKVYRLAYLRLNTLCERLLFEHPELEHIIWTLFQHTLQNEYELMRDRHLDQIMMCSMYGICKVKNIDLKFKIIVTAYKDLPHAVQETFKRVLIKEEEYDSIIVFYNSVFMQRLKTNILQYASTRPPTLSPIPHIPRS
# Protocol summary: fluorescence polarisation; 25 °C; unlabeled Rb^P titrated against 1.5 nM TMR-E2F1^TD or 7.5 nM TMR-E7^LxCxE; 25 mM Tris pH 8.0, 200 mM NaCl, 1 mM DTT, 0.1% Tween-20; 2 min incubation; quadratic fit; apparent Kd for the variants, Kd for WT
# Test settings: both partners purified
No end group written: not given here. TMR = tetramethyl rhodamine dye
The following binders are listed with their measured Kd values.
Write the value in nM as a bare number.

| Binder | Quantity name | Value observed |
| --- | --- | --- |
| DLYCYEQLN (also: TMR label, position not given here, source: synthetic peptide, bought: GenScript) [TMR-E7^LxCxE, LxCxE peptide of the E7 oncoprotein from HPV] | Kd | 9 |

Reported Kd, binder {TMR}-GEGIRDLFDCDFGDLTPLD (also called E2F^TD; source: synthetic peptide, bought: GenScript) [TMR-E2F1^TD, peptide of the E2F1 transactivation domain] : ____
24
